- System: HEK-293T
- Protocol summary: Incucyte cell viability with HEK293T; also: unitless GR value; below 1 slowed growth and below 0 cell loss
- Type: toxicity, cell-based
- Stated conditions: human, 18 h, 10 µM, compound concentration 10 uM, replicate number 1
Could you label it condition met if measured Growth Rate is 0.1 or higher, and condition not met otherwise?

Solved cases below.
[
  {
    "Compound": "CC[N+](CC)(CC)CCOc1ccc(/C=C/c2ccccc2)cc1.[I-] [STILONIUM IODIDE]",
    "Tested target": "HEK-293T",
    "Assigned category": "condition not met"
  },
  {
    "Compound": "Cn1c(SCc2ccc(C(C)(C)C)cc2)nc(N)cc1=O",
    "Tested target": "HEK-293T",
    "Assigned category": "condition met"
  },
  {
    "Compound": "COc1cc(F)ccc1-c1ncnc(Nc2cccc(C[S@](C)(=N)=O)c2)n1",
    "Tested target": "HEK-293T",
    "Assigned category": "condition not met"
  }
]

For this compound, is measured Growth Rate 0.1 or higher? Fc1ccc(-c2nc(-c3ccc4ccccc4c3F)[nH]c2-c2ccncc2)cc1
condition met

Textbook exercise: given the entry C=C(F)C(=O)N1CCN(c2nc(OC[C@@H]3CCCN3C)nc3c2CCN(c2cccc4cccc(Cl)c24)C3)C[C@@H]1CC#N , state whether its Growth Rate is greater than or equal to 0.1.
condition not met
